binding over background (PBS-only wells) for assorted binders
# TESTED SYSTEM: T1, PrgI-SipD
# T1 construct: also called PrgI-SipD fusion
# T1 chain: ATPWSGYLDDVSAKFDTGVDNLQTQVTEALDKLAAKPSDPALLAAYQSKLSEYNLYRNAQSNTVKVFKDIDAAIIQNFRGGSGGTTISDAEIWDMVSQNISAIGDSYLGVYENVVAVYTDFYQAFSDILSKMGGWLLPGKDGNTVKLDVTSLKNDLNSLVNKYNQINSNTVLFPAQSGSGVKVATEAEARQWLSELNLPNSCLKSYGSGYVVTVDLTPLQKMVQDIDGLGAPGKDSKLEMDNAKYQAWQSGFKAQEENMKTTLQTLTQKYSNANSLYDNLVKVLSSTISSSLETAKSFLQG
# EXPERIMENT DESCRIPTION: phage ELISA, antigen-coated wells, anti-M13-HRP, A405

>>> result("NBX0233 (VHH, also called Clone 130) VHH: QVQLQESGGGLVQAGGSLSLSCTASGSAFSGDAMGWYRRAPGKQRDFVAGISSGHITNYMDSVKGRFTISRDNAKNTVYLQMTKLKPEDTAVYYCNSITAVLRGNSGWGQGTQVTVSS")
"≥ 4 fold"

Exercise: What does the data say about its binding over background (PBS-only wells)? Entry: NBX0230 (VHH, also called Clone 127) VHH: QVQLQESGGGSVQAGGSLRLSCAASARTLSNYAMGWFRQAPGKEREFVATISRSGGSIHYADSVKGRFTISRDNAKNTVNLQMNSLKVEDTAVYYCGRARGTGYAYTALNQYDYDYWGQGTQVTVSS
Key: ≥ 4 fold
